System: MRC-5 cells
OUTCOME MEASURE: CC50 (µM)
Numbers only, in µM.

The following molecules have reported results that may help.
MOLECULE	MEASURED ON	CC50 [µM]
CCCCCCCCCCCCCCCCCCOC[C@H](COP(=O)(O)OC[C@H]1O[C@@](C#N)(c2ccc3c(N)ncnn23)[C@H](O)[C@@H]1O)OCc1ccc(C(F)(F)F)cc1 [Compound 15p]	MRC-5 cells	13.9
CCCCCCCCCCCCCCCCOCCCOP(=O)(O)OC[C@H]1O[C@@](C#N)(c2ccc3c(N)ncnn23)[C@H](O)[C@@H]1O	MRC-5 cells	32.1
CCCCCCCCCCCCCCCCCCOC[C@H](COP(=O)(O)OC[C@H]1O[C@@](C#N)(c2ccc3c(N)ncnn23)[C@H](O)[C@@H]1O)OCc1cccc(F)c1 [Compound 15h]	MRC-5 cells	22.9

Required: CC50, one value per molecule below.
1. CCCCCCCCCCCCCCCCCCOC[C@H](COP(=O)(O)OC[C@H]1O[C@@](C#N)(c2ccc3c(N)ncnn23)[C@H](O)[C@@H]1O)OCc1ccccc1 [Compound 15d]
2. CCCCCCCCCCCCCCCCCCOC[C@H](COP(=O)(O)OC[C@H]1O[C@@](C#N)(c2ccc3c(N)ncnn23)[C@H](O)[C@@H]1O)OCc1cccc(C(F)(F)F)c1 [Compound 15o]

stdout:
43.1
16

====

System: HCoV-229E
Format: cell-based, human Coronavirus 229E
For each entry below, report its EC50 value.
Please give the number followed by its unit.

The following compounds have reported results that may help.
COMPOUND	EC50
CCCCCCCC/C=C\CCCCCCCCOC[C@H](COP(=O)(O)OC[C@H]1O[C@@](C#N)(c2ccc3c(N)ncnn23)[C@H](O)[C@@H]1O)OCc1ccccc1 [Compound 15l]	0.13 µM
CCCCCCCCCCCCCCCCOC[C@H](COP(=O)(O)OC[C@H]1O[C@@](C#N)(c2ccc3c(N)ncnn23)[C@H](O)[C@@H]1O)OCc1ccccc1 [Compound 15b]	0.56 µM
CCCCCCCCCCCCCCCCCCOC[C@H](COP(=O)(O)OC[C@H]1O[C@@](C#N)(c2ccc3c(N)ncnn23)[C@H](O)[C@@H]1O)OCCCCCCCC [Compound 15f]	0.12 µM

Here's the next entry for you.
stdin: Could you tell me which EC50 is on file for CCCCCCCCCCCCCCCCCCOC[C@H](COP(=O)(O)OC[C@H]1O[C@@](C#N)(c2ccc3c(N)ncnn23)[C@H](O)[C@@H]1O)OCc1ccc(OC)c(F)c1 [Compound 15j] ?
stdout: 0.074 µM

====

Test system: SARS-CoV-2 isolate USA-WA1/2020
Test: SARS-CoV-2 infection in PSC-human lung cells, qRT-PCR (Example 7)
Assay type: cell-based
Settings: PSC-human lung cells, MOI 0.01, 48 hours
OUTCOME MEASURE: pEC50
Answers are plain numbers, as −log10 of the molar value.

stdin: Could you tell me which pEC50 is on file for CCCCCCCCCCCCCCCCOCCCOP(=O)(O)OC[C@H]1O[C@@](C#N)(c2ccc3c(N)ncnn23)[C@H](O)[C@@H]1O [Compound 4b, 3-(Hexadecyloxy)propyl-phospho-RVn] ?
stdout: 6.46

====

System: HIV-1
Assay: microbe, parasite or virus in culture
Settings: Human immunodeficiency virus 1, PBMC
For each entry below, report its EC50 value.
Give bare numbers, in nM.

Required: EC50, one value per compound below.
1. CCCCCCCCCCCCCCCCCCOCCOP(=O)(OCc1ccccc1)OC[C@H]1O[C@@H](n2cc(F)c(N)nc2=O)CS1 (stereo partly shown)
2. CCCCCCCCCCCCCCCCCCOCCOP(=O)(O)OC[C@H]1O[C@@H](n2cc(F)c(N)nc2=O)CS1
3. CCCCCCCC/C=C\CCCCCCCCOCCOP(=O)(O)CO[C@H](C)Cn1cnc2c(N)nc(N)nc21
4. CCCCCCCCCCCCCCCCCCOCCOP(=O)(CO[C@H](C)Cn1cnc2c(N)ncnc21)OCc1ccccc1 (stereo partly shown)

stdout:
[18.3, 9.6, 0.1, 1.7]

====

Experiment: in vitro
Conditions: human
OUTCOME MEASURE: CC50 at 48.5 h

stdin: Could you tell me which CC50 at 48.5 h is on file for N#C[C@@]1(c2ccc3c(N)ncnn23)O[C@H](CO)[C@@H](O)[C@H]1O [RVn, reference compound] ?
stdout: > 100 µM

====

Assay: in vitro
Details: human
OUTCOME MEASURE: CC50

stdin: Could you tell me which CC50 is on file for CCC(CC)COC(=O)[C@H](C)N[P@](=O)(OC[C@H]1O[C@@](C#N)(c2ccc3c(N)ncnn23)[C@H](O)[C@@H]1O)Oc1ccccc1 [RDV, Remdesivir, reference compound] ?
stdout: > 50 µM

====

Test system: Calu-3 cells
Assay: Cytotoxicity in Calu-3 cells, nuclei count or CellTiter-Glo (Example 6)
Conditions: for select compounds up to 100 μM by CellTiter-Glo
OUTCOME MEASURE: CC50 (µM)
One number for each entry, in µM.

MOLECULE	UNIT LABEL	CC50
CCCCCCCCCCCCCCCCCCOC[C@H](COP(=O)(O)OC[C@H]1O[C@@](C#N)(c2ccc3c(N)ncnn23)[C@H](O)[C@@H]1O)OCc1ccc(OC)c(F)c1 [Compound 15j]	µM	50.6

Here's the next entry for you.
stdin: Could you tell me which CC50 is on file for CCCCCCCCCCCCCCCCOC[C@H](COP(=O)(O)OC[C@H]1O[C@@](C#N)(c2ccc3c(N)ncnn23)[C@H](O)[C@@H]1O)OCc1ccccc1 [Compound 15b] ?
stdout: 88.2

====

Assay: in vitro
Conditions: human
OUTCOME MEASURE: CC50

stdin: Could you tell me which CC50 is on file for CCCCCCCCCCCCCCCCCCOC[C@H](COP(=O)(O)OC[C@H]1O[C@@](C#N)(c2ccc3c(N)ncnn23)[C@@H](O)C1O)OCc1ccccc1C#N (stereo partly shown) ?
stdout: > 100 µM

====

Tested on: Calu 3
Test: Cytotoxicity of cyanobenzyl analogs, Calu 3
OUTCOME MEASURE: CC50 (µM)
Numbers only, in µM.

stdin: Could you tell me which CC50 is on file for CCCCCCCCCCCCCCCCCCOC[C@H](COP(=O)(O)OC[C@H]1O[C@@](C#N)(c2ccc3c(N)ncnn23)[C@H](O)[C@@H]1O)OCc1cccc(C#N)c1 ?
stdout: 61.6

====

For each entry below, report its EC90 value.
Test system: SARS-CoV-2
Test: SARS-CoV-2 infection assay in Calu-3 cells, nucleocapsid immunofluorescence (Example 6)
Conditions: MOI 0.01, 44 hour
One number for each entry, in nM.

COMPOUND	MEASURED ON	EC90, nM
CCCCCCCCCCCCCCCCCCOC[C@H](COP(=O)(O)OC[C@H]1O[C@@](C#N)(c2ccc3c(N)ncnn23)[C@H](O)[C@@H]1O)OCc1ccccc1 [Compound 15d]	SARS-CoV-2	536
CCCCCCCCCCCCCCCCOC[C@H](COP(=O)(O)OC[C@H]1O[C@@](C#N)(c2ccc3c(N)ncnn23)[C@H](O)[C@@H]1O)OCc1ccc(OC)c(F)c1 [Compound 15c]	SARS-CoV-2	221
CCCCCCCCCCCCCCCCCCOC[C@H](COP(=O)(OCc1ccccc1)OC[C@H]1O[C@@](C#N)(c2ccc3c(N)ncnn23)[C@H](O)[C@@H]1O)OCc1ccccc1 (stereo partly drawn)	SARS-CoV-2	10900
CCCCCCCC/C=C\CCCCCCCCOC[C@H](COP(=O)(O)OC[C@H]1O[C@@](C#N)(c2ccc3c(N)ncnn23)[C@H](O)[C@@H]1O)OCc1ccccc1 [Compound 15l]	SARS-CoV-2	294

Here's the next entry for you.
stdin: Could you tell me which EC90 is on file for CCCCCCCCCCCCCCCCCCCCOP(=O)(O)OC[C@H]1O[C@](C#N)(c2ccc3c(N)ncnn23)[C@H](O)[C@@H]1O ?
stdout: 1320

====

// endpoint CC50 / system MRC-5 cells

COMPOUND	CC50
CCCCCCCC/C=C\CCCCCCCCOC[C@H](COP(=O)(O)OC[C@H]1O[C@@](C#N)(c2ccc3c(N)ncnn23)[C@H](O)[C@@H]1O)OCc1ccc(OC)c(F)c1 [Compound 15m]	> 50 µM

Required: CC50, one value per compound below.
1. CCCCCCCCCCCCCCCCOC[C@H](COP(=O)(O)OC[C@H]1O[C@@](C#N)(c2ccc3c(N)ncnn23)[C@H](O)[C@@H]1O)OCc1ccccc1 [Compound 15b]
2. CCCCCCCCCCCCCCCCCCOCC(COP(=O)(O)OC[C@H]1O[C@@](C#N)(c2ccc3c(N)ncnn23)[C@H](O)[C@@H]1O)OCc1ccccc1 (mixture of isomers) [Compound 15e]
3. CCCCCCCC/C=C\CCCCCCCCOC[C@H](COP(=O)(O)OC[C@H]1O[C@@](C#N)(c2ccc3c(N)ncnn23)[C@H](O)[C@@H]1O)OCc1ccccc1 [Compound 15l]

stdout:
["> 50 µM", "30.9 µM", "> 50 µM"]

stdin: Could you tell me which CC50 is on file for CCCCCCCCCCCCCCCCCCOC[C@H](COP(=O)(O)OC[C@H]1O[C@@](C#N)(c2ccc3c(N)ncnn23)[C@H](O)[C@@H]1O)OCCCCCCCC [Compound 15f] ?
stdout: > 50 µM
